Listed here are binders together with their documented Kd.
molecular target: RSV postfusion F (postF), F deltaFP (respiratory syncytial virus, UniProt P03420 26-513); assay: BLI, IgG on sensor, 100 nM antigen
Measured Endpoint: Kd (nM)

Binder | Measured Endpoint | Reported Value
ADI-41375 (antibody, V domains shown, IgG1) VH: QVQLVQSGGGVVQPGRSLRLSCATSGFTFSDYAIHWVRQAPGKGLEWVAVISYDGSHKYYGDSVKGRFTISRDNSKNTLYLQMNSLRPEDTAVYYCARSRSGSYYSSAIDNWGQGTLVTVSS VL: DIQMTQSPSSLSASVGDRVTIACRASQGISSALAWYRQRPGKAPELLIYDASTLESGVPSRFSGYGAGTDFTLTISSLQPEDFATYYCQQFNSYPSITFGQGTKVEIK | Kd | 1.02
ADI-41432 (antibody, V domains shown, IgG1) VH: QVQLVQSGAEVKKPGYSVKVSCKASGGTFSTFGISWVRQAPGLGLEWMGGIIPLFGTADYSKKYQGRVTITADESTSTGYMELNSLTPEDTAVYYCARSPGHLWSRYDAFEVWGQGTTVTVSS VL: QPVLTQPRSVSGSPGQSVTISCSGTSSDVGGYNYVSWYQQYPGKAPKLIIYDVNKRPSGVPDRFSGSKSDNTASLTISGLQADDESDYFCCSYAGSHTFEVFGTGTKVTVL | Kd | 0.286
